Examples of binders with documented cross-competition score follow.
Target: T1, Human Siglec-15, His Tag (human Siglec-15 full-length extracellular domain linked with His tag) (human, UniProt Q6ZMC9 20-263)
T1 construct: Bought from ACROBiosystems; also called Siglec-15 protein; SG5-H52H3
T1 sequence: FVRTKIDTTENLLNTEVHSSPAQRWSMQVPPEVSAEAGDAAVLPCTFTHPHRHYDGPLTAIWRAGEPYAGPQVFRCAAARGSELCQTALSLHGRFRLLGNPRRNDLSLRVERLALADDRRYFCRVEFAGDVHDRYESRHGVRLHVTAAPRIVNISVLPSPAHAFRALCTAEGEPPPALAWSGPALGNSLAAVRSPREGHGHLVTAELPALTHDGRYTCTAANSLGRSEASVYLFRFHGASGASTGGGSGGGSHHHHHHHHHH
Experiment: Octet BLI epitope binning, Siglec-15 His on HIS1K sensor; competitor 255C12B10
Please give a number only; it is taken to be in %.

Here is how some binders turned out for cross-competition score.
75E1F2 chimeric antibody (antibody, V domains shown, Mouse variable regions combined with human IgG1 (N297A) constant regions) VH: EVQLVESGGGSVKPGGSLKLSCAASGFTFSDYGMHWVRQAPEKGLEWITYISSGSSIIDYSDTVKGRFTISRDNAKDTLFLQMTSLRSEDTAIYYCVRREDHYAMDYWGQGTSVTVSS VL: DIVMTQSHKFLSTSVGDRVSITCKASQDVYTAVAWFQQKPGQSPKLLFYSASYRFTGVPDRFNGSGSGTDFTLTITSMQAEDLAVYYCQQHYSTPWTFGGGTKLEIK: 69.2
124B11F6 chimeric antibody (antibody, human IgG1, V domains shown, also called 124B11F6-mHL) VH: EVQLQQSGAELVRPGASVKLSCTASVFNIKDYYMHWVKQRTEQGLEWIGRIDPEDDKTKYAPKFQGKATITADTSSNTAYLHLSTLTSEDTAVYYCVRGWLGYIMDFWGQGTSVTVSS VL: QLVLTQSSSASFSLGASAKLTCTLSSQHSTYTIDWYQQQPLKPPKYVMELKEDGSHSTGDGIPDRFSGSSSGADRYLGISNIQPEDEAVYICGVGATIKEQFVYVFGGGTKVTVL: 44.9
21F6C6 chimeric antibody (antibody, human IgG1, V domains shown, also called 21F6C6-mHL) VH: EVMLVESGGGLVKPGGSLKLSCAASGFTFSSYAMSWVRQSPEKRLEWVATISSGGSLIYYPDSVTGRFTISRDNAKSTLYLQMSSLRSEDTAMYYCVRHGYYYGDSTLYYAMDYWGPGTSVTVSS VL: DIVLTQSPASLAVSLGQRATISCKASQSVDYDGDSYMNWYQQKPGQPPKLLIYAASNLESGIPARFSGSGSGTDFTLNIHPVEEEDAATYYCQQSNEAPLTFGAGTKLELK: 56.8

In: Sample 174C11C9 chimeric antibody (antibody, human IgG1, V domains shown, also called 174C11C9-mHL) VH: EVQLQQSGPVLVKPGASVKMSCEASGYIFTDYYMNWVKQSPGKSLEWIGVFNPYSGGISYNQKFKGKATLTVDTSSSTAYMELNSLTSEDSAVYYCARDYYYLSSHGFYALDYWGQGTSVTVSS VL: DIVLTQSPASLAVSLGQRATISCRASESVDSYGNSFIHWYQQRPGRPPKLLMYRASNLESGIPARFSGSGSRTDFTLTIDPVEADDVATYYCQQSNEDPLTFGAGTKLELK — what was its cross-competition score?
Out: 52.4
